From: patent EP1192182B1

Target: T1, PACAP-R3 (human, UniProt P41587 24-438)
T1 sequence (looked up): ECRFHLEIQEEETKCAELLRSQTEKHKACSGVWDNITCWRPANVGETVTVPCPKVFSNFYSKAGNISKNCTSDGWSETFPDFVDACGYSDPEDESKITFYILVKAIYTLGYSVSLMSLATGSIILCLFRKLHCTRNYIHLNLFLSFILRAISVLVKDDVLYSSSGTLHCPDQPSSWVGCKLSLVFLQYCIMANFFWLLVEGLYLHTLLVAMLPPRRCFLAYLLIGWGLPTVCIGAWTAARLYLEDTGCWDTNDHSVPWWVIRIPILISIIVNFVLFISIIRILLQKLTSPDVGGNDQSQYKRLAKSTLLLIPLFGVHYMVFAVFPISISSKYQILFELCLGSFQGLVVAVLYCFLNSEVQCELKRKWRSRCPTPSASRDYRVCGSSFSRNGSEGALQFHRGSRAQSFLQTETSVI
Test: cell-based or functional assay
No end group written: not given here.
Known R3 Selectivity of a selection of binders

{"columns": ["binder", "R3 Selectivity"],
 "data": [
  ["HSDAVFTDNYTRLRKQMAFKKYLNSIKNKR [R3P99]", "40 ratio"],
  ["HSDAVFTDNYTRLRKQMAAKKYLNSIGNKR [R3P120]", "50 ratio"],
  ["HSDAVFTDNYTKLRKQLAAKKYLNDILNGGT [R3P11]", "3 ratio"],
  ["HSDAVFTDNYTRLRKQVAVKKYLQSILKKR [R3P88]", "12 ratio"],
  ["HSDAVFTDNYTRLRKQLAAKKYLNDILNGGT [R3P27]", "8 ratio"],
  ["HSDAVFTDNYTRLRKQMAAKKYLNSIKN [R3P49]", "30 ratio"],
  ["HSDAVFTDNYTRLRKQMAVKKYLNSILK [R3P43]", "10 ratio"],
  ["HSDAVFTDNYTRLRKQMAAKKYLNSIKNKK [R3P160]", "500 ratio"],
  ["HSDAVFTDNYTRLRKQMAVKKYLNSIKNKRY [R3P59]", "70 ratio"],
  ["HSDGIFTDSYSRYRKQMAVKKYLAAVKK [R3P40]", "2 ratio"],
  ["HSDAVFTDNYTRLRKQMAAKKYLNSIKNKRY [R3P55]", "280 ratio"],
  ["HSDAVFTDNYTRLRKQIAAKKYLQTIKK [R3P61]", "140 ratio"],
  ["HSDGIFTDSYSRYRKQMAVKKYLAAVKQGGT-NH2 [R3P16]", "1.4 ratio"],
  ["HSDAVFTDNYTRLRKQVAAKKYLQSIKKKR [R3P77]", "500 ratio"]
]}
